# assay-text: Absorbance and fluorescence maximum wavelengths and quantum yields of the CyNA library
# Format: physicochemical
# test-context: in DMSO, Cardiogreen as standard
quantity-measured: φ, quantum yield
Quick one: just the number, no unit, thanks!

Example cases with answers are listed next.
compound	quantity-measured	measurement
CCCN1/C(=C/C=C2\CCCC(/C=C/C3=[N+](CCC)c4ccccc4C3(C)C)=C2N(CCC(c2ccccc2)c2ccccc2)C(C)=O)C(C)(C)c2ccccc21	φ, quantum yield	0.08
CCCN1/C(=C/C=C2\CCCC(/C=C/C3=[N+](CCC)c4ccccc4C3(C)C)=C2N(Cc2ccccc2C)C(C)=O)C(C)(C)c2ccccc21	φ, quantum yield	0.08
CCCN1/C(=C/C=C2\CCCC(/C=C/C3=[N+](CCC)c4ccccc4C3(C)C)=C2N(CCc2ccc(OC)c(OC)c2)C(C)=O)C(C)(C)c2ccccc21	φ, quantum yield	0.08
CCCN1/C(=C/C=C2\CCCC(/C=C/C3=[N+](CCC)c4ccccc4C3(C)C)=C2N(CCc2ccccc2Cl)C(C)=O)C(C)(C)c2ccccc21	φ, quantum yield	0.06
CCCN1/C(=C/C=C2\CCCC(/C=C/C3=[N+](CCC)c4ccccc4C3(C)C)=C2N(CC2CCCCC2)C(C)=O)C(C)(C)c2ccccc21	φ, quantum yield	0.08

Recorded φ, quantum yield for CCCN1/C(=C/C=C2\CCCC(/C=C/C3=[N+](CCC)c4ccccc4C3(C)C)=C2N(CCCOCC)C(C)=O)C(C)(C)c2ccccc21 , please?
0.10

Reported φ, quantum yield for CCCN1/C(=C/C=C2\CCCC(/C=C/C3=[N+](CCC)c4ccccc4C3(C)C)=C2N(Cc2cccc(Br)c2)C(C)=O)C(C)(C)c2ccccc21 : what is it?
0.10

Look up φ, quantum yield: CCCN1/C(=C/C=C2\CCCC(/C=C/C3=[N+](CCC)c4ccccc4C3(C)C)=C2N(Cc2ccc(OC)cc2OC)C(C)=O)C(C)(C)c2ccccc21 [CyNA-181]
0.14

Item under review: CCCCC(CC)COCCCN(C(C)=O)C1=C(/C=C/C2=[N+](CCC)c3ccccc3C2(C)C)CCC/C1=C\C=C1\N(CCC)c2ccccc2C1(C)C (stereo not drawn) . Reported φ, quantum yield?
0.12
